B1: glmS ribozyme (parent)
chain: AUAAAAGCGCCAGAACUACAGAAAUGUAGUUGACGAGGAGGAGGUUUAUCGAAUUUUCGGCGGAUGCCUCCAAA

Variants of: B1
Assay summary: self-cleavage kobs at 10000 uM GlcN6P; higher = faster cleavage; RNA array
Condition summary: with glucosamine-6-phosphate
Fewer inactive variants are shown than the library holds.
Experimental readout: self-cleavage kobs at 10000 uM GlcN6P (s⁻¹)
Answers are plain numbers, in s⁻¹.

A14C U31G U47G; 0.00313
C16U U31C; 0.00694
A42G U45C C70U; 0.00197
A12G U46A C71G; 3.42e-05
A39U G44A C67G; 0.00582

Could you report self-cleavage kobs at 10000 uM GlcN6P for every entry in the following list?
1. U31A A39G U55C
2. G40C A53G G66C

0.0297
0.000137

Could you report self-cleavage kobs at 10000 uM GlcN6P for every entry in the following list?
1. A52U U65A
2. U55G G66U
3. U30A U49G
4. U46G U69C
5. A39G G40U U55C C71A
6. G40C A52G

1. 2.95e-05
2. 0.00195
3. 0.000119
4. 0.00149
5. 0.00562
6. 0.000133
